Numbers sourced from paper PMC7824300.

target: DNMT1 (Homo sapiens, UniProt P26358); construct: purchased Reaction Biology Corporation (contract screening service); assay: HotSpot radioisotope methyltransferase assay, DNMT1 (Poly dI-dC substrate); assay type: biochemical; conditions: 100 μM compound; mean of two measurements ± SD; 1 μM SAM
Sequence (P26358 whole entry): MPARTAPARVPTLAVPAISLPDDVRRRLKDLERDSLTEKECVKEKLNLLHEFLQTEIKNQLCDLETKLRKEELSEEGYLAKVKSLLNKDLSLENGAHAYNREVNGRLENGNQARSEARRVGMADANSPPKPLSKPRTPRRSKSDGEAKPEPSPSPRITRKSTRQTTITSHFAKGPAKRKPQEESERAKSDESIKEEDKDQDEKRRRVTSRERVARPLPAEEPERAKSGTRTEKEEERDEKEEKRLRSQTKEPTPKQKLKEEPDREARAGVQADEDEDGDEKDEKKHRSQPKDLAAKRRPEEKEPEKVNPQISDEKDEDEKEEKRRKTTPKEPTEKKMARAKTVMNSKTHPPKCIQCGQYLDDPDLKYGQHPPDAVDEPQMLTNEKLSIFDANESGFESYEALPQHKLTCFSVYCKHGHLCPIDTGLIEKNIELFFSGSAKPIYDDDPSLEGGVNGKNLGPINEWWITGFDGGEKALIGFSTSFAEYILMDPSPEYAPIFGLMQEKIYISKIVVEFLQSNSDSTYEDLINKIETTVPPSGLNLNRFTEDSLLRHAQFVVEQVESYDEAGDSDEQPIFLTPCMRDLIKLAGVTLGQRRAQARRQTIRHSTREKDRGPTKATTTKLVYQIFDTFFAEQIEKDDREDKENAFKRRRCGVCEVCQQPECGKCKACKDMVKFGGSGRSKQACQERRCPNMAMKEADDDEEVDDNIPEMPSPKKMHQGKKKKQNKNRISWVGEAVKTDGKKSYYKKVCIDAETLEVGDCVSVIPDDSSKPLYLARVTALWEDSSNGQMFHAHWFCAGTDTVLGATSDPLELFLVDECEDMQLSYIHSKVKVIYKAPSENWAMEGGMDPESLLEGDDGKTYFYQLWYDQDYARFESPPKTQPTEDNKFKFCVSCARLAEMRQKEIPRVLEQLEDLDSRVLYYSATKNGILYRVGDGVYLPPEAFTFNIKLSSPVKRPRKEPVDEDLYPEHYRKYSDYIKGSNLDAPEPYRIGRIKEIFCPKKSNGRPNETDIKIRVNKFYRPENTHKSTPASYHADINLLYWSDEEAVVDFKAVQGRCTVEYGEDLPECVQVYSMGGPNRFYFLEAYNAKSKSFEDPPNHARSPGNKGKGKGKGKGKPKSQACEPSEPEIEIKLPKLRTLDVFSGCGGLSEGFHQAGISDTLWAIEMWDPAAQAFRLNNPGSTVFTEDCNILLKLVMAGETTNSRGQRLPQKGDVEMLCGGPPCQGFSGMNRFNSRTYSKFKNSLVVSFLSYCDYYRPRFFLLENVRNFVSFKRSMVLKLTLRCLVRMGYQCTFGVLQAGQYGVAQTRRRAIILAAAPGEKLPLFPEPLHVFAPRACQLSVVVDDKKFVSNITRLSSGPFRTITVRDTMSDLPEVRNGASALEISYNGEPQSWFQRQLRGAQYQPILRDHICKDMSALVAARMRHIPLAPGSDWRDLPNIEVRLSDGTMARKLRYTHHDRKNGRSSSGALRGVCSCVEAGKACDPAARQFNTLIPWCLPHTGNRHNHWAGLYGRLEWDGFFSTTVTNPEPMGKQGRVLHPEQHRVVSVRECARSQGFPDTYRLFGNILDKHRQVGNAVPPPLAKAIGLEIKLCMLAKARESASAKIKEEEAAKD
experimental-endpoint: relative enzymatic activity of DNMT1

Past entries and their recorded results:
COc1ccc(Cl)cc1C(=O)NCCc1ccc(S(=O)(=O)NC(=O)NC2CCCCC2)cc1 [Glyburide, reference compound]: 40.04 (±0.78) %
COc1ccc(S(=O)(=O)Nc2c(C)n(C)n(-c3ccccc3)c2=O)cc1C(=O)O [compound 6631802]: 93.26 (±7.97) %

Query string: Look up relative enzymatic activity of DNMT1: CC(C)(CC(=O)Nc1cccc(Cn2cccn2)c1)C(=O)O [CSC027796832]
Result string: 107.25 (±0.59) %

Query string: Now consider Cc1cc(NCc2nnc(Cc3ccccc3)o2)ccc1C(N)=O [CSC027694519] and answer again.
Result string: 35.42 (±1.78) %

Query string: Queued: O=c1c(O)cc([C@H]2Oc3cc(O)cc(O)c3C[C@H]2O)cc2c([C@H]3Oc4cc(O)cc(O)c4C[C@H]3O)cc(O)c(O)c12 [Theaflavin]
Result string: 34.62 (±0.06) %
